assayed.system: MBP-FoxP3dN (Mus musculus, UniProt Q99JB6 188-423)
Sequence: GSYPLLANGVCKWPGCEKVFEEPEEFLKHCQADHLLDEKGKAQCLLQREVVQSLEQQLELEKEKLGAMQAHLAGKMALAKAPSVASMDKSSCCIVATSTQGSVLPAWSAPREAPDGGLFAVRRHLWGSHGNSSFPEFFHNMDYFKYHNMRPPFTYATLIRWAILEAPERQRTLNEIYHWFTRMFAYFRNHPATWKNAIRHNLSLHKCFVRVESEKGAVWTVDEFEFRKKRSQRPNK
method.summary: PD-seq (MBP pull-down with sequencing); 20 mM Tris-HCl pH 7.5, 100 mM NaCl, 1.5 mM MgCl2, 0.4 uM protein, 0.1 uM dsDNA library, 30 min, room temperature, amylose pull-down; high values mean tight binding
setup.conditions: protein: recombinant; tags: His6-MBP; chain copies: 2; dsDNA, one strand shown
The full ranking holds about 16,000 sequences; the median of “rpm ratio (pull-down/input)” is about 0.5, and the highest 2% start at about 5.5. The sample holds the highest values, similar sequences and a random draw of the others, so the mix is not that of the screen.
endpoint.label: binding signal

Just so you know, measured binding signal for GATGATTGTTCTCCCAGCTGATGAATTTTCTTTATCGAGTAAACAAATTTTCCTAATCTTTCTGTTCAAGCGCCATCTAC came out at 1.27 RPM ratio (pull-down/input)

binding signal measured on GATGATTGTTCTCCCAGCTGATGAATTAGTTCTCTCGAGTAAACAAATTTTCCTAATCTTTCTGTTCAAGCGCCATCTAC = 0.491 RPM ratio (pull-down/input)

Reported binding signal ( GATGATTGTTCTCCCAGCTGATGAATTTTGTTTATCGAGTAAACAAATTTTCCTAATCTTTCTGTTCAAGCGCCATCTAC ) = 7.19 RPM ratio (pull-down/input)

Entry GATGATTGTTCTCCCAGCTGATGAATTCCGGCGTTCGAGTAAACAAATTTTCCTAATCTTTCTGTTCAAGCGCCATCTAC ; binding signal = 1.07 RPM ratio (pull-down/input)

response.value for GATGATTGTTCTCCCAGCTGATGAATTAGTTGTCTCGAGTAAACAAATTTTCCTAATCTTTCTGTTCAAGCGCCATCTAC (field: binding signal) = 5.87 RPM ratio (pull-down/input)

The recorded binding signal for GATGATTGTTCTCCCAGCTGATGAATTCCTATCGTCGAGTAAACAAATTTTCCTAATCTTTCTGTTCAAGCGCCATCTAC is 0.382 RPM ratio (pull-down/input)

The recorded binding signal for entry GATGATTGTTCTCCCAGCTGATGAATTAGTTCTGTCGAGTAAACAAATTTTCCTAATCTTTCTGTTCAAGCGCCATCTAC equals 0.398 RPM ratio (pull-down/input)

Per the records, this sequence ( GATGATTGTTCTCCCAGCTGATGAATTATGATTATCGAGTAAACAAATTTTCCTAATCTTTCTGTTCAAGCGCCATCTAC ) has binding signal equal to 3.53 RPM ratio (pull-down/input)

The value of binding signal measured for the sequence GATGATTGTTCTCCCAGCTGATGAATTTGATTTATCGAGTAAACAAATTTTCCTAATCTTTCTGTTCAAGCGCCATCTAC turned out to be 2.99 RPM ratio (pull-down/input)

The value of binding signal measured for the sequence GATGATTGTTCTCCCAGCTGATGAATTTATCTAATCGAGTAAACAAATTTTCCTAATCTTTCTGTTCAAGCGCCATCTAC turned out to be 0.706 RPM ratio (pull-down/input)

The recorded binding signal for GATGATTGTTCTCCCAGCTGATGAATTACTTTCTTCGAGTAAACAAATTTTCCTAATCTTTCTGTTCAAGCGCCATCTAC is 0.388 RPM ratio (pull-down/input)

For GATGATTGTTCTCCCAGCTGATGAATTGTGTTTATCGAGTAAACAAATTTTCCTAATCTTTCTGTTCAAGCGCCATCTAC the sequence record lists binding signal as 8.53 RPM ratio (pull-down/input)

Noted for GATGATTGTTCTCCCAGCTGATGAATTCCATTCGTCGAGTAAACAAATTTTCCTAATCTTTCTGTTCAAGCGCCATCTAC : its binding signal reads 0.494 RPM ratio (pull-down/input)

For this sequence ( GATGATTGTTCTCCCAGCTGATGAATTAGTTGTGTCGAGTAAACAAATTTTCCTAATCTTTCTGTTCAAGCGCCATCTAC ), measured binding signal is 6.21 RPM ratio (pull-down/input)

Consider GATGATTGTTCTCCCAGCTGATGAATTACGTTGCTCGAGTAAACAAATTTTCCTAATCTTTCTGTTCAAGCGCCATCTAC . Its measured binding signal is 1.14 RPM ratio (pull-down/input)

So for GATGATTGTTCTCCCAGCTGATGAATTTATGTTATCGAGTAAACAAATTTTCCTAATCTTTCTGTTCAAGCGCCATCTAC , the logged binding signal turned out to be 3.24 RPM ratio (pull-down/input)

----------
assayed.system: MBP-FoxP3dN (Mus musculus, UniProt Q99JB6 188-423)
Sequence: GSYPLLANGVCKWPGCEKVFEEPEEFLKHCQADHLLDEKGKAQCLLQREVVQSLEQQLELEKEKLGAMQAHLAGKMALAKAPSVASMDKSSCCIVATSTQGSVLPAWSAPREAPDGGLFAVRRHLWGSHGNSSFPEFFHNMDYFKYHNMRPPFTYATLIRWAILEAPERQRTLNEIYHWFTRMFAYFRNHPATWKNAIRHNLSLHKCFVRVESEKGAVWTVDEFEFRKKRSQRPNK
method.summary: PD-seq (MBP pull-down with sequencing); 20 mM Tris-HCl pH 7.5, 100 mM NaCl, 1.5 mM MgCl2, 0.4 uM protein, 0.1 uM dsDNA library, 30 min, room temperature, amylose pull-down; high values mean tight binding
setup.conditions: protein: recombinant; tags: His6-MBP; chain copies: 2; dsDNA, one strand shown
Whole data set: some 16,000 sequences, median “rpm ratio (pull-down/input)” near 0.5, cut for the highest 2% near 5.5. What follows is part of a selection rich in the highest values, with near analogues and random picks from the rest.
Exercise: for every item that follows, state its recorded binding signal.

Record GATGATTGTTCTCCCAGCTGATGAATTCGCATCTTCGAGTAAACAAATTTTCCTAATCTTTCTGTTCAAGCGCCATCTAC , field binding signal: 5.81 RPM ratio (pull-down/input)

Item: GATGATTGTTCTCCCAGCTGATGAATTCATTGAATCGAGTAAACAAATTTTCCTAATCTTTCTGTTCAAGCGCCATCTAC | binding signal: 0.267 RPM ratio (pull-down/input)

Entry under test: GATGATTGTTCTCCCAGCTGATGAATTTCGCGCATCGAGTAAACAAATTTTCCTAATCTTTCTGTTCAAGCGCCATCTAC . Its binding signal was 1.42 RPM ratio (pull-down/input)

The recorded binding signal for entry GATGATTGTTCTCCCAGCTGATGAATTTCTCGCATCGAGTAAACAAATTTTCCTAATCTTTCTGTTCAAGCGCCATCTAC equals 0.861 RPM ratio (pull-down/input)

# binding signal of GATGATTGTTCTCCCAGCTGATGAATTGAGCGCATCGAGTAAACAAATTTTCCTAATCTTTCTGTTCAAGCGCCATCTAC = 1.34 RPM ratio (pull-down/input)

Sample GATGATTGTTCTCCCAGCTGATGAATTCTTTGGCTCGAGTAAACAAATTTTCCTAATCTTTCTGTTCAAGCGCCATCTAC ; binding signal observed: 0.217 RPM ratio (pull-down/input)

get_value(item= GATGATTGTTCTCCCAGCTGATGAATTAAGTGAATCGAGTAAACAAATTTTCCTAATCTTTCTGTTCAAGCGCCATCTAC , readout=binding signal) returns 0.328 RPM ratio (pull-down/input)

Measured binding signal of GATGATTGTTCTCCCAGCTGATGAATTCGCGCCATCGAGTAAACAAATTTTCCTAATCTTTCTGTTCAAGCGCCATCTAC : 2.63 RPM ratio (pull-down/input)

What the record says about GATGATTGTTCTCCCAGCTGATGAATTGGTACGCTCGAGTAAACAAATTTTCCTAATCTTTCTGTTCAAGCGCCATCTAC : binding signal is 0.466 RPM ratio (pull-down/input)

Record summary for GATGATTGTTCTCCCAGCTGATGAATTCTATAGCTCGAGTAAACAAATTTTCCTAATCTTTCTGTTCAAGCGCCATCTAC : reported binding signal = 0.43 RPM ratio (pull-down/input)

get_value(item= GATGATTGTTCTCCCAGCTGATGAATTATACGAGTCGAGTAAACAAATTTTCCTAATCTTTCTGTTCAAGCGCCATCTAC , readout=binding signal) returns 0.404 RPM ratio (pull-down/input)

The value of binding signal measured for the sequence GATGATTGTTCTCCCAGCTGATGAATTGAGGACGTCGAGTAAACAAATTTTCCTAATCTTTCTGTTCAAGCGCCATCTAC turned out to be 0.248 RPM ratio (pull-down/input)

Quick note, binding signal for GATGATTGTTCTCCCAGCTGATGAATTTTGACGTTCGAGTAAACAAATTTTCCTAATCTTTCTGTTCAAGCGCCATCTAC landed at 0.933 RPM ratio (pull-down/input)

Lab book: binding signal of GATGATTGTTCTCCCAGCTGATGAATTTGTTAGCTCGAGTAAACAAATTTTCCTAATCTTTCTGTTCAAGCGCCATCTAC noted as 6.55 RPM ratio (pull-down/input)

Field binding signal (entry GATGATTGTTCTCCCAGCTGATGAATTCCTATTGTCGAGTAAACAAATTTTCCTAATCTTTCTGTTCAAGCGCCATCTAC ) reads 0.764 RPM ratio (pull-down/input)

Briefly, binding signal measured for GATGATTGTTCTCCCAGCTGATGAATTTAGATTATCGAGTAAACAAATTTTCCTAATCTTTCTGTTCAAGCGCCATCTAC : 1.31 RPM ratio (pull-down/input)

So, GATGATTGTTCTCCCAGCTGATGAATTCCAAATCTCGAGTAAACAAATTTTCCTAATCTTTCTGTTCAAGCGCCATCTAC ? Its binding signal was 0.26 RPM ratio (pull-down/input)

// binding signal lookup, sequence = GATGATTGTTCTCCCAGCTGATGAATTTCTATTGTCGAGTAAACAAATTTTCCTAATCTTTCTGTTCAAGCGCCATCTAC , result: 0.631 RPM ratio (pull-down/input)

binding signal for GATGATTGTTCTCCCAGCTGATGAATTTGTCTATTCGAGTAAACAAATTTTCCTAATCTTTCTGTTCAAGCGCCATCTAC is 5.7 RPM ratio (pull-down/input)

get_value(item= GATGATTGTTCTCCCAGCTGATGAATTTGTTGGCTCGAGTAAACAAATTTTCCTAATCTTTCTGTTCAAGCGCCATCTAC , readout=binding signal) returns 7 RPM ratio (pull-down/input)

Reported binding signal of GATGATTGTTCTCCCAGCTGATGAATTGTTAGGCTCGAGTAAACAAATTTTCCTAATCTTTCTGTTCAAGCGCCATCTAC : 0.88 RPM ratio (pull-down/input)

Sample GATGATTGTTCTCCCAGCTGATGAATTTCTTAGCTCGAGTAAACAAATTTTCCTAATCTTTCTGTTCAAGCGCCATCTAC ; binding signal observed: 0.342 RPM ratio (pull-down/input)

binding signal recorded for this sequence, GATGATTGTTCTCCCAGCTGATGAATTGCAAGCGTCGAGTAAACAAATTTTCCTAATCTTTCTGTTCAAGCGCCATCTAC , is 0.974 RPM ratio (pull-down/input)

For record GATGATTGTTCTCCCAGCTGATGAATTCGGATGGTCGAGTAAACAAATTTTCCTAATCTTTCTGTTCAAGCGCCATCTAC the listed binding signal is 0.433 RPM ratio (pull-down/input)

get_value(item= GATGATTGTTCTCCCAGCTGATGAATTCTATTTGTCGAGTAAACAAATTTTCCTAATCTTTCTGTTCAAGCGCCATCTAC , readout=binding signal) returns 5.87 RPM ratio (pull-down/input)

Entry GATGATTGTTCTCCCAGCTGATGAATTCGAACACTCGAGTAAACAAATTTTCCTAATCTTTCTGTTCAAGCGCCATCTAC , binding signal reported as 0.457 RPM ratio (pull-down/input)

So for GATGATTGTTCTCCCAGCTGATGAATTCTTCGCATCGAGTAAACAAATTTTCCTAATCTTTCTGTTCAAGCGCCATCTAC , the logged binding signal turned out to be 0.708 RPM ratio (pull-down/input)

binding signal reading for GATGATTGTTCTCCCAGCTGATGAATTGCCCGAGTCGAGTAAACAAATTTTCCTAATCTTTCTGTTCAAGCGCCATCTAC : 0.303 RPM ratio (pull-down/input)

binding signal reading for GATGATTGTTCTCCCAGCTGATGAATTGTCCTATTCGAGTAAACAAATTTTCCTAATCTTTCTGTTCAAGCGCCATCTAC : 0.45 RPM ratio (pull-down/input)
